Reference source for all entries: ChEMBL document CHEMBL4689842

System: HEK-293T
Measurement Protocol: Multiplex assay against HEK293T
Type: toxicity, cell-based
Condition Parameters: human, 24 h, 1 µM, compound concentration 1 uM, replicate 2
# Population Healthy Nuclei (%) binned as c1: < 60%; c2: ≥ 60% and < 80%; c3: ≥ 80%

[
  {
    "Compound": "COc1cc2c(Nc3ccc(NC(=O)c4ccccc4)cc3)ncnc2cc1OCCCN1CCOCC1",
    "Answer Label": "c3"
  }
]

Which Population Healthy Nuclei (%) band matches CN(C)CCOc1ccc(-c2nc(-c3ccncc3)c(-c3ccc4c(c3)CC/C4=N\O)[nH]2)cc1 [SB590885] ? c3

Which Population Healthy Nuclei (%) band matches `c1ccc2oc(-c3csc(C4CCN(Cc5nc6ncccc6[nH]5)CC4)n3)cc2c1` ? c3

Which Population Healthy Nuclei (%) band matches `COc1ccc(NS(=O)(=O)c2sc3ccc(Cl)cc3c2C)cc1N1CCNCC1.Cl` ? c1

Which Population Healthy Nuclei (%) band matches `Cl.Cl.Nc1ncnc2c1c(-c1cccc(OCc3ccccc3)c1)cn2[C@H]1C[C@@H](CN2CCC2)C1` ? c1

Which Population Healthy Nuclei (%) band matches `Cl.Cl.NC1(c2ccc(-c3nc4ccn5c(=O)[nH]nc5c4cc3-c3ccccc3)cc2)CCC1` ? c2

Which Population Healthy Nuclei (%) band matches O=C(O)c1ccc2cc(-c3ccc(O)c(C45CC6CC(CC(C6)C4)C5)c3)ccc2c1 [O-DEMETHYLATED ADAPALENE] ? c2

Which Population Healthy Nuclei (%) band matches `CC(=O)c1cc(-c2cc(C(=O)NC3CC3)ccc2C)c2ncccn12` ? c2

Which Population Healthy Nuclei (%) band matches CCc1cc2c(cc1CC)CC(NC[C@H](O)c1ccc(O)c3[nH]c(=O)ccc13)C2 [INDACATEROL] ? c1

----------
System: HEK-293T
Measurement Protocol: Multiplex assay against HEK293T
Format: toxicity, cell-based
Condition Parameters: human, 12 h, 1 µM, compound concentration 1 uM, replicate 2
Catalogue of molecules with associated Total Cell Count
Answer with a bare number; do not write a unit.

Sample records with Total Cell Count:
[
  {
    "Molecule": "CCn1c(-c2nonc2N)nc2cnc(Oc3cccc(NC(=O)c4ccc(OCCN5CCOCC5)cc4)c3)cc21 [GSK-269962A]",
    "Total Cell Count": 251
  },
  {
    "Molecule": "c1ccc2oc(-c3csc(C4CCN(Cc5nc6ncccc6[nH]5)CC4)n3)cc2c1",
    "Total Cell Count": 1174
  },
  {
    "Molecule": "Cc1cn(-c2cc(NC(=O)c3ccc4c(c3)CN(c3cncnc3)C[C@@H]4C)cc(C(F)(F)F)c2)cn1",
    "Total Cell Count": 1397
  },
  {
    "Molecule": "CC(C)Oc1ccc(C(=O)N[C@H](CNC(=O)CN(C)C)Cc2ccc(-c3cn4cccc([C@H](C)O)c4n3)cc2)cc1Cl [GSK-923295A]",
    "Total Cell Count": 1239
  },
  {
    "Molecule": "Cl.Cl.NC1(c2ccc(-c3nc4ccn5c(=O)[nH]nc5c4cc3-c3ccccc3)cc2)CCC1",
    "Total Cell Count": 1341
  }
]

Identify the measured Total Cell Count of `COc1ccc(NS(=O)(=O)c2sc3ccc(Cl)cc3c2C)cc1N1CCNCC1.Cl` for HEK-293T. 233

Identify the measured Total Cell Count of `N#Cc1cnc(Nc2cc(NC[C@H]3CNCCO3)c(C(F)(F)F)cn2)cn1` for HEK-293T. 2034

Identify the measured Total Cell Count of `CNC(=O)c1cc(Oc2ccc(NC(=O)Nc3cc(C(C)(C)C)nn3-c3ccc4ncccc4c3)c(F)c2)ccn1` for HEK-293T. 1893
